Recorded IC50, one value per entry.
# Target or system: RORγ-LBD (Homo sapiens (Human))
# Sequence (P51449 269-508): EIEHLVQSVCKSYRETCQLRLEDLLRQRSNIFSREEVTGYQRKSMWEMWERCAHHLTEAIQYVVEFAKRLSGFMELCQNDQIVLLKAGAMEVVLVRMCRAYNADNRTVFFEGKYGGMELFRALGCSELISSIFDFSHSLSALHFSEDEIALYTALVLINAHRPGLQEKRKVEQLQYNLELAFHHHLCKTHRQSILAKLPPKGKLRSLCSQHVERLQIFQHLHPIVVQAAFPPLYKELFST
# Assay comment: LanthaScreen TR-FRET screening of RORγ-LBD / co-activator (Fluorescein-D22) interaction
Quantity kind: IC50

| Compound | Quantity kind | Result |
| --- | --- | --- |
| O=C(O)c1ccc(N2C(=O)/C(=C\c3c(Cl)cccc3C3CC3)c3c(Cl)cccc32)cc1O [Example 14] | IC50 | 100 to 1000 nM |
| O=C(O)c1ccc(N2C(=O)/C(=C\c3c(F)cccc3Cl)c3c(F)cccc32)cc1 [Example 17A] | IC50 | 100 to 1000 nM |
| O=C(O)c1ccc(N2C(=O)/C(=C/c3c(F)cccc3F)c3c(F)cccc32)cc1 [Example 18B] | IC50 | 1000 to 10000 nM |
| Cc1cccc2c1/C(=C/c1c(Cl)cccc1C1CCC1)C(=O)N2c1ccc(C(=O)O)c(O)c1 [Example 35] | IC50 | 100 to 1000 nM |
| O=C(O)c1ccc(N2C(=O)/C(=C/c3c(Cl)cccc3C3CC3)c3c(F)cccc32)cc1O [Example 21B] | IC50 | 100 to 1000 nM |
| Cc1cccc2c1/C(=C\c1c(Cl)cccc1C1CC1)C(=O)N2c1ccc(C(=O)O)cc1 [Example 2B] | IC50 | 100 to 1000 nM |
| Cc1cccc2c1/C(=C/c1c(Cl)cccc1C1CC1)C(=O)N2c1ccc(C(=O)O)c(N)c1 [Example 33] | IC50 | 1000 to 10000 nM |
| Cc1cccc(Cl)c1/C=C1\C(=O)N(c2ccc(C(=O)O)cc2)c2cccc(C)c21 [Example 29] | IC50 | 100 to 1000 nM |
| Cc1cccc2c1/C(=C/c1c(Cl)cccc1C1CC1)C(=O)N2c1ccc(C(=O)O)c(F)c1 [Example 25] | IC50 | 100 to 1000 nM |
| COc1cccc2c1/C(=C/c1c(Cl)cccc1Cl)C(=O)N2c1ccc(C(=O)O)c(O)c1 [Example 11] | IC50 | 100 to 1000 nM |
| O=C(O)c1ccc(N2C(=O)/C(=C/c3c(F)cccc3Cl)c3c(F)cccc32)cc1 [Example 17B] | IC50 | 100 to 1000 nM |
| O=C(O)c1ccc(N2C(=O)/C(=C\c3c(Cl)cccc3C3CC3)c3c(-c4ccccc4)cccc32)cc1 [Example 13] | IC50 | 100 to 1000 nM |
| CCCc1cccc(Cl)c1/C=C1\C(=O)N(c2ccc(C(=O)O)cc2)c2cccc(F)c21 [Example 20A] | IC50 | 100 to 1000 nM |
| COc1cccc(Cl)c1/C=C1\C(=O)N(c2ccc(C(=O)O)cc2)c2cccc(C)c21 [Example 32] | IC50 | 1000 to 10000 nM |
| COc1cccc2c1/C(=C/c1c(Cl)cccc1Cl)C(=O)N2c1ccc(C(=O)O)cc1 [Example 31] | IC50 | 1000 to 10000 nM |
| CCCc1cccc(Cl)c1/C=C1/C(=O)N(c2ccc(C(=O)O)cc2)c2cccc(F)c21 [Example 20B] | IC50 | 100 to 1000 nM |
| O=C(O)c1ccc(N2C(=O)/C(=C\c3c(F)cccc3F)c3c(F)cccc32)cc1 [Example 18A] | IC50 | 1000 to 10000 nM |
| Cc1cccc2c1/C(=C/c1c(Cl)cccc1C1CC1)C(=O)N2c1ccc(C(=O)O)c(Cl)c1 [Example 24] | IC50 | 100 to 1000 nM |
